- method_notes: Determination of the log P values by HPLC (formic acid method)
- Assay type: physicochemical
- run_parameters: reversed-phase column (C 18), acidic range (pH 3.4), 55° C.
Listed here are compounds together with their documented log P.
// no unit, no text: just the number

O=C(Nc1ccn(-c2ccccc2Cl)n1)c1cccnc1Cl [Compound I-1-43] ... 2.19
Cc1noc(C(F)F)c1C(=O)Nc1ccn(-c2ncc(F)cc2F)n1 [Compound I-1-157] ... 2.33
Cc1oc(C)c(C(=O)Nc2ccn(-c3c(F)cccc3F)n2)c1Br [Compound I-1-304] ... 3.38

Output measured log P for this item: O=C(Nc1ccn(-c2c(F)cccc2F)n1)c1c(F)cccc1Cl [Compound I-1-85]
2.60

Return log P for the following compound: O=C(Nc1ccn(-c2cccc(F)c2F)n1)c1ccccc1I [Compound I-1-190]
3.09

Fill in log P for record O=C(Nc1ccn(-c2c(F)cccc2F)n1)c1ccccc1C(F)F [Compound I-1-74]
2.73

Quickly give me recorded log P for Cc1ccccc1C(=O)N(C(=O)c1cccnc1C)C1=NN(c2c(F)cccc2F)CC1 [Compound I-4-6]
4.45

This collection of values is drawn from patent US9802899B2.
